System: Polyketide synthase Pks13 (Mycobacterium tuberculosis (strain ATCC 25618 / H37Rv)) (UniProt I6X8D2)
Sequence (I6X8D2 whole entry): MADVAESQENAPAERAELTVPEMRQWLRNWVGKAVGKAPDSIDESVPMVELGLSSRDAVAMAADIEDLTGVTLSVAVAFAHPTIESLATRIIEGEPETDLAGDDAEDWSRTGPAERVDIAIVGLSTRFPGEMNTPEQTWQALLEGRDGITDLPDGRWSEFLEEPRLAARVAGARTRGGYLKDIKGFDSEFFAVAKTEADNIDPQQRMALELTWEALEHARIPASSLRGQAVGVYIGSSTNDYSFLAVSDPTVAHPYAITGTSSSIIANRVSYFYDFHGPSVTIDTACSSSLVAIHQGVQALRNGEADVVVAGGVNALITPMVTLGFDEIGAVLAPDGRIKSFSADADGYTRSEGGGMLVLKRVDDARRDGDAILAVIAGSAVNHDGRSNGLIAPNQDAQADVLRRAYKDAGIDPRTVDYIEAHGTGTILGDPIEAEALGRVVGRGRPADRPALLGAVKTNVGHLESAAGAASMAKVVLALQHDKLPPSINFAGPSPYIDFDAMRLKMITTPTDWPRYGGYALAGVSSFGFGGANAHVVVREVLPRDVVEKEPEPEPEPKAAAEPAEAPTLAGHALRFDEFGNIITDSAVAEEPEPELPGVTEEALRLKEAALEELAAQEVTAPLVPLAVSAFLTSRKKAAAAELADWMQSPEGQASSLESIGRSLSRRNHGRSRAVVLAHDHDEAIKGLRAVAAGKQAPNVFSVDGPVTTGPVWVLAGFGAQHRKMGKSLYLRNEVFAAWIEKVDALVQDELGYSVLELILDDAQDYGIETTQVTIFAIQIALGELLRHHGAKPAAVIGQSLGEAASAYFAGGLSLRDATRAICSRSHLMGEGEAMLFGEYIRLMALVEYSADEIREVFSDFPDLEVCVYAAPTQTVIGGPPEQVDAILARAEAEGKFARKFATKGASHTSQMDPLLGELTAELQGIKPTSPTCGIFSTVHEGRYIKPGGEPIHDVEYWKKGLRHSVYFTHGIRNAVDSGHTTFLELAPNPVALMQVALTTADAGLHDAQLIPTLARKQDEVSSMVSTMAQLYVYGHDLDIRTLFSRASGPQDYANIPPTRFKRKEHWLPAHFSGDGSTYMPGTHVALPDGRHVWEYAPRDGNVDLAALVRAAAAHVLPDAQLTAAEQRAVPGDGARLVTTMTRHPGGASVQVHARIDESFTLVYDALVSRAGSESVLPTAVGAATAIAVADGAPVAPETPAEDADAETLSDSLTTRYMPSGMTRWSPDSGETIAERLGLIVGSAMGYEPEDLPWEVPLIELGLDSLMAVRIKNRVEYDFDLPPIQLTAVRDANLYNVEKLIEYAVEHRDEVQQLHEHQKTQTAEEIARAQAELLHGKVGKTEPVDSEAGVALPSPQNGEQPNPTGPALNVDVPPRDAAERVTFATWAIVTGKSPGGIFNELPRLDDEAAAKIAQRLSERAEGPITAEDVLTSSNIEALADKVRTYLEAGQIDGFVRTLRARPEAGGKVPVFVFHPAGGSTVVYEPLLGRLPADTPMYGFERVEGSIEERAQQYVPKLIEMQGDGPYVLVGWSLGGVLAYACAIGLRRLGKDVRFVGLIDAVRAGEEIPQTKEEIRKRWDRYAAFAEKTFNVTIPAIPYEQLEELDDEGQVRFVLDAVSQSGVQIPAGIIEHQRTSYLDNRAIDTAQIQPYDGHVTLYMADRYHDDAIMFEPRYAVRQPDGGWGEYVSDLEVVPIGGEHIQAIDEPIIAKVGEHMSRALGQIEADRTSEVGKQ
Assay text: Mycobacterium tuberculosis Polyketide synthase 13 Thioesterase (PKS13)
Type: functional
Parameters: scale not given: in the data most compounds retested in dose-response had high values
Experimental parameters: 30 µM
Screen size: about 67,000 compounds; about 300 (0.45%) showed an effect of 50% or more. Shown is part of a subset that was picked to be rich in strong results.
Reported endpoint: Percent Effect

Would you kindly share the measured Percent Effect for "Cc1cc(C)n(-c2cncc(NCCNC(=O)CC3CCCC3)n2)n1" ?
-10.3%

Let us now turn to "Cc1cc(C)n(-c2cncc(NCCNS(C)(=O)=O)n2)n1"
59.2%

Let us now turn to "CCN(CC)C(=O)CCNc1cncc(-n2nc(C)cc2C)n1"
10.2%

Let us now turn to "Cc1cc(C)n(-c2cncc(NCCNC(=O)c3cccnc3)n2)n1"
2.44%

Let us now turn to "Cc1cc(C)n(-c2cncc(NCCC(=O)NC(C)C)n2)n1"
62.4%

Let us now turn to "Cc1cc(C)n(-c2cncc(NCCNC(=O)C3CCCC3)n2)n1"
40.3%

###

What Percent Effect was measured for each of the following?
System: Polyketide synthase Pks13 (Mycobacterium tuberculosis (strain ATCC 25618 / H37Rv))
Assay text: Mycobacterium tuberculosis Polyketide synthase 13 Thioesterase (PKS13)
Assay type: functional
Set-up: scale not given: in the data most compounds retested in dose-response had high values
Experimental parameters: 30 µM
In all, about 67,000 compounds went through this assay and about 300 (0.45%) showed an effect of 50% or more. Shown is part of a subset that was picked to be rich in strong results.
State the answer as a number, implicitly in %.

What value of Percent Effect on Polyketide synthase Pks13 (Mycobacterium tuberculosis (strain ATCC 25618 / H37Rv)) does "O=C1CC[C@H]2CN(Cc3cccc(F)c3)CC[C@H]2N1CCc1c[nH]cn1" have?
-22.1

Let us now turn to "O=C(c1cc(-c2ccco2)nc2c(Cl)cccc12)N1CCS(=O)(=O)CC1"
-5.09

Let us now turn to Cc1cc(N2CCCC2c2cncc(N(C)C)n2)ncn1 (centres undefined)
-0.232

Let us now turn to COCC1CCN(C(=O)c2cc(-c3ccco3)nc3c(Cl)cccc23)C1 (centres undefined)
66.3

Let us now turn to "Cn1ccc(C(=O)NCc2ccc(CN3CCCCC3)cc2)cc1=O"
4.22

Let us now turn to Cc1cc(C2CCCCN2C(=O)c2cccn2C)nc2nccn12 (centres undefined)
8.03

Let us now turn to "CC(=O)N1[C@H](CN(C)C)C[C@@H]2CN(C(=O)c3cccc(F)c3)CC[C@@H]21"
-7.05

Let us now turn to "CN(C)C(=O)N[C@@H]1CN(C2CCOCC2)[C@@H]2CCCO[C@@H]21"
-25.3

Let us now turn to "O=C(CC1CC1)N1C[C@H]2CCN[C@H]2C1"
1.79

Let us now turn to CC(C1CC1)N(C)C(=O)c1cnc(-c2ccc3c(c2)OCO3)s1 (centres undefined)
-13

Let us now turn to "COc1ccc(C(=O)N2CC[C@@H]3[C@H](CC2)N(C)CCS3(=O)=O)cc1"
-17.1

Let us now turn to "O=C(c1cc(-c2ccco2)nc2c(Cl)cccc12)N1C[C@H]2CNC[C@H]2C1"
-42.7

Let us now turn to O=C1CC(c2ccc(O)cc2)c2sc(C(=O)O)c(-c3ccccc3)c2N1 (centres undefined)
-18.2

Let us now turn to CC(C)c1nc(CN(C)C2CCN(CCS(C)(=O)=O)C2)no1 (centres undefined)
-22.6

Let us now turn to "Cc1nnc(N2C[C@@H]3CCCO[C@@H]3[C@H](N(C)C)C2)s1"
26.3

Let us now turn to "CS(=O)(=O)N1CC[C@H]2OCC[C@@]2(C(=O)NCc2ccccn2)C1"
-5.05

Let us now turn to "COCCN1C[C@H]2CN(Cc3cccc(OC(F)(F)F)c3)CCN2C1=O"
-30.8

Let us now turn to "Cc1ccccc1-n1cc(CN(C)C[C@@H]2CCCN3CCCC[C@H]23)cn1"
-16.8

Let us now turn to "CN1CC[C@H]2CN(C(=O)c3csc(Cc4ccccc4)n3)C[C@H]21"
-37.9

Let us now turn to "c1cnc(NC[C@H]2OC[C@@H]3CCN(Cc4ccsc4)C[C@@H]32)nc1"
-14

Let us now turn to CC(C)c1nc(CN(C)C2CCN(CCNS(C)(=O)=O)C2)no1 (centres undefined)
93.5

Let us now turn to "CNC(=O)CN1CC[C@H]2CN(C(=O)c3cccc(C)c3)C[C@H]2C1"
-11

Let us now turn to "Cn1ccc(C(=O)NCc2ccc(CN3CCCC3)cc2)cc1=O"
-2.41

Let us now turn to "O=C(c1ccc(F)cc1)N1C[C@H]2CCC[C@@]2(COCc2ccccn2)C1"
-35.6

Let us now turn to "O=C(c1cccc(F)c1)N1CC[C@H]2[C@H]1CCN2CC1CCOCC1"
-17.7

Let us now turn to "O=C(NC1CC1)[C@@H]1CCO[C@@H]2CCN(C3CCOCC3)C[C@H]21"
-9.37

Let us now turn to "CCCOc1ccc(Cl)cc1CNc1ncnc2oc(C)nc12"
78.9

Let us now turn to "CC(C)CN1C[C@H]2CCN(C(=O)NC3CCCC3)CC[C@H]2S1(=O)=O"
6.92

Let us now turn to Cc1cc(C2CCCCN2C(=O)c2ccsc2)nc2nccn12 (centres undefined)
84.3

Let us now turn to "O=C(NCc1cccc(F)c1)N1CCc2ncnc(NC3CC3)c2CC1"
-9.48

Let us now turn to Cc1cnn(CC(C)NCC(=O)NCCc2cccs2)c1 (centres undefined)
-15.2

Let us now turn to "O=C(CC(F)(F)F)N1C[C@H]2CN(CC3CC3)C(=O)[C@H]2C1"
-30.7

Let us now turn to "Cc1nccc(N2CC[C@@H]3[C@@H](CCC(=O)N3CCc3ccccc3)C2)n1"
-11

Let us now turn to c1ccc(OCC2C[C@@H]3[C@@H](C2)OCCN3CC2CCOCC2)nc1 (some centres undefined)
-0.0246

Let us now turn to CNC(=O)CN1CCO[C@H]2CN(CC3CCOC3)C[C@H]21 (some centres undefined)
-18.9

Let us now turn to "CC(C)(NC(=O)c1ccc(-c2ccc(F)cc2)s1)C(N)=O"
-17.8

Let us now turn to "N#Cc1cccc(N2CCC(CO)(CCOc3ccccc3)CC2)n1"
128

Let us now turn to "CCCn1ncc(CN2C[C@@H]3CCCN3C[C@@H]2Cc2ccccc2)c1C"
21.5

Let us now turn to "COc1ccccc1CN1C(=O)O[C@@H]2CN(c3ccccn3)C[C@@H]21"
4.73

Let us now turn to "O=C([C@H]1CC[C@@H]2[C@@H](CCN2c2ncccn2)O1)N1CCCCO1"
4.55

Let us now turn to "Cc1nc(-c2ccc(Cl)s2)sc1C(=O)NC(C)(C)C(N)=O"
59.7

Let us now turn to "O=C(CCc1n[nH]c2c1CCCC2)N1C[C@@H]2CC[C@H](C1)N(CC1CC1)C2"
-15.4

Let us now turn to Cc1noc(C)c1C(=O)N1CCCCC1c1cc(C)n2ccnc2n1 (centres undefined)
-1.89

Let us now turn to CNc1cncc(C2CCCN2c2cc(C)ncn2)n1 (centres undefined)
55
